# target_or_system: c-Met (Homo sapiens, UniProt P08581)
# Sequence (P08581 25-1390): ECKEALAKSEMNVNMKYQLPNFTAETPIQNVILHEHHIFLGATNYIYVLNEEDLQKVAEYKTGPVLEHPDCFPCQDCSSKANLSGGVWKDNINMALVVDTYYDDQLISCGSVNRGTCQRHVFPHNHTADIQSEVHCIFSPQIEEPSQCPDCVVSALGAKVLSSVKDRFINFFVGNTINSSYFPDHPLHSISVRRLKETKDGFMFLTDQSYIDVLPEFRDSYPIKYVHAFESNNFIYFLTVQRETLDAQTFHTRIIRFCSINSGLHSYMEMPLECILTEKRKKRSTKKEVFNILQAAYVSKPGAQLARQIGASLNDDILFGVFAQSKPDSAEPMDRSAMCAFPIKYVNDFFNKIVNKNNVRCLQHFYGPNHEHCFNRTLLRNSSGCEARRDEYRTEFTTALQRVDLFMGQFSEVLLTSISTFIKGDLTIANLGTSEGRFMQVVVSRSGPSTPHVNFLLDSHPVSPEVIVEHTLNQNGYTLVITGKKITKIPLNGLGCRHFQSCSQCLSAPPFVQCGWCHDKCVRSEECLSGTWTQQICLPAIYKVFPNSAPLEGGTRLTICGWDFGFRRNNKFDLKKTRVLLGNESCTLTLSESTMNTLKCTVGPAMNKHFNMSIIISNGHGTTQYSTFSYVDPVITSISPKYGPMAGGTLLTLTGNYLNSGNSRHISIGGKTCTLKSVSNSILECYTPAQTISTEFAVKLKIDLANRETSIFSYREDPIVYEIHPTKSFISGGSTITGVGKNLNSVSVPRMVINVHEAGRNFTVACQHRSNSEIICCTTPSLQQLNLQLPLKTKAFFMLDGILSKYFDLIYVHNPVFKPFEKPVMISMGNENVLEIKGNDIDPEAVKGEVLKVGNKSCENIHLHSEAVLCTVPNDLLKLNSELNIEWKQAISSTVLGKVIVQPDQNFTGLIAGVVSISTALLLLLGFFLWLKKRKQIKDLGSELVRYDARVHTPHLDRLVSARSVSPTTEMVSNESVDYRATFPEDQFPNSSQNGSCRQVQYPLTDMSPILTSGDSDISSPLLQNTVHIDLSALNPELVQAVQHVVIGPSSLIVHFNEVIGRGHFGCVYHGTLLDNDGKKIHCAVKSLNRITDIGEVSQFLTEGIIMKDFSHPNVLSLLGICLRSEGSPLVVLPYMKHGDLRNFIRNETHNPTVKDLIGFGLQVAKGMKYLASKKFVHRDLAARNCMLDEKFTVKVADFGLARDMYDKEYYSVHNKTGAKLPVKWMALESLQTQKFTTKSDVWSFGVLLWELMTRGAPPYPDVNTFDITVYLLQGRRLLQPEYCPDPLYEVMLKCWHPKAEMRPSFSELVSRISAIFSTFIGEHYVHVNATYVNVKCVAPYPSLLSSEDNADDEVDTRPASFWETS
measured_quantity: pIC50
Just so you know, pIC50 here is -log10 of the concentration in molar units; reply with that number alone.

Entry under review: `COc1cc2ncnc(Oc3ccc(Nc4nccc5[nH]cc(-c6ccc(C(F)(F)F)cc6)c(=O)c45)cc3F)c2cc1OC` . Reported pIC50?
4.60

* * *

# target_or_system: purified recombinant c-Met kinase domains (Homo sapiens, UniProt P08581)
# Sequence (P08581 1078-1345 limits assumed): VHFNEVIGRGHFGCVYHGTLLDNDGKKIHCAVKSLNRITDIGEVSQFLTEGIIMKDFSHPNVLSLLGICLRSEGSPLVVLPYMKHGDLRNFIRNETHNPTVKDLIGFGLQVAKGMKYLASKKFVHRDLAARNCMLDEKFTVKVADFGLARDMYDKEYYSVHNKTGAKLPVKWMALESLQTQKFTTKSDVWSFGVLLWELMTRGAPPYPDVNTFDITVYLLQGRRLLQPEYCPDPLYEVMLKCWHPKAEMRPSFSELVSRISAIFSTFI
# assay_explanation: Biochemical kinase assay
measured_quantity: pIC50
Just so you know, pIC50 here is -log10 of the concentration in molar units; reply with that number alone.

Entry under review: COc1cc2ncnc(Oc3ccc(Nc4nccc5[nH]cc(-c6ccc(C(F)(F)F)cc6)c(=O)c45)cc3F)c2cc1OC [Compound 5d] . Reported pIC50?
7.39
